system: PTGER4 (EP4) (Homo sapiens (Human))
Sequence (P35408 whole entry): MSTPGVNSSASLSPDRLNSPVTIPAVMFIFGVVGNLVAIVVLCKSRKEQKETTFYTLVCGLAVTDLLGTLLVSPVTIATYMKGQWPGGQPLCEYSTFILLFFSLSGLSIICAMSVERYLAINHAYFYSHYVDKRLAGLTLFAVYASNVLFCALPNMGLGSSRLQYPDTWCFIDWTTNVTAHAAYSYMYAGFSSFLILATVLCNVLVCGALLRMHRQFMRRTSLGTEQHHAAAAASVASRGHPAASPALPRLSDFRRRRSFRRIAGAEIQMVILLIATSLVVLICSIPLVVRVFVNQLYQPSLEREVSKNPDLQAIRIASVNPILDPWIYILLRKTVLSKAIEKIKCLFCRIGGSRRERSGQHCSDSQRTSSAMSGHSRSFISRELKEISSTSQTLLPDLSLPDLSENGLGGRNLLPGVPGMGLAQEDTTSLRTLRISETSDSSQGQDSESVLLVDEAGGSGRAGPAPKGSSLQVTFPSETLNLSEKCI
assay: cell-based
Labelling: IC50 reported below 0.2 µM becomes T; at or above becomes F.

Previously resolved entries follow.
COc1c(CCNc2cc(-c3ccc(C(=O)O)c(CC(C)C)c3)ncn2)cc2ccsc2c1F [Example 415]
T
COc1cc2c(cc1CCNc1cc(-c3ccc4oc(C(=O)O)cc4c3)ncn1)OCCO2 [Ex 93]
F
CCOc1cc(-c2cc(NCCc3ccc4sccc4c3)ncn2)ccc1CC(=O)O [Ex 189]
T
CCCCOc1cc(-c2cc(NCCc3cc(F)c4sccc4c3)ncn2)ccc1C(=O)O [Example 454]
F
CCc1nc(-c2cc(NCCc3ccc4ccccc4c3C)ncn2)sc1-c1noc(=O)[nH]1 [Example 353]
T

Problem: Below 0.2 µM on IC50? Entry CCCCOc1cc(-c2cc(NCCc3ccc4ccccc4c3C)ncn2)cc(F)c1C(=O)O [Ex 150]
Solution: F

Problem: Identify whether the compound CSc1cc(-c2cc(NCCc3ccc4ccsc4c3C)ncn2)ccc1C(=O)O [Example 473] records IC50 below 0.2 µM.
Solution: F

Problem: Does the reported IC50 of Cc1c(CCNc2cc(-c3ccc(C(=O)O)c(OC(F)F)c3)ncn2)ccc2ccccc12 [Ex 83] stay below 0.2 µM?
Solution: F
